System: recombinant NL-Rluc virus (NL4-3 with Renilla Luciferase gene) in MT-2 cells
Test: Inhibition of HIV replication (NL-Rluc luciferase reporter virus, MT-2 cells)
Format: cell-based, human immunodeficiency virus (HIV)
Details: NL43, 120 h, read-out: Activity
pEC50: −log10 of the molar value. Structures can show the parent of a compound that is named as a salt.
Task for the reader: assign each of the following molecules its reported pEC50.

Past entries and their recorded results:
- Molecule: "Cc1nc2c(C)c(-c3cccc(-c4cc(F)c5c(c4C)CCCO5)c3)nn2c(-c2cc(F)c3c(c2C)CCCO3)c1[C@H](OC(C)(C)C)C(=O)O"
  pEC50: "> 7.00"
- Molecule: "Cc1nc2cc(-c3ccc4c(c3)CCCC4)nn2c(-c2ccc(Cl)cc2F)c1[C@H](OC(C)(C)C)C(=O)O"
  pEC50: "6.00 to 7.00"
- Molecule: "COc1ccc(-c2c(C(OC(C)(C)C)C(=O)O)c(C)nc3cc(-c4ccccc4)nn23)c(F)c1 (stereo not drawn)"
  pEC50: "< 6.00"
- Molecule: "Cc1ncccc1-c1cccc(-c2cc3nc(C)c([C@H](OC(C)(C)C)C(=O)O)c(-c4cc(F)c5c(c4C)CCCO5)n3n2)c1"
  pEC50: "> 7.00"
- Molecule: "Cc1nc2cc(-c3cccc(Cl)c3)nn2c(-c2cc(F)c3c(c2C)CCCO3)c1[C@H](OC(C)(C)C)C(=O)O [Example 123, TFA salt]"
  pEC50: "> 7.00"

Query molecule follows.
Exercise: Tell me the measured pEC50 of Cc1nc2cc(-c3ccc4c(c3)CCCO4)nn2c(-c2ccc3c(c2)CCCO3)c1C(OC(C)(C)C)C(=O)O (stereo not drawn) [Example 113, TFA salt] , please.
Solution: 6.00 to 7.00

---

Test system: recombinant NL-Rluc virus (NL4-3 with Renilla Luciferase gene) in MT-2 cells
Experiment: Inhibition of HIV replication (NL-Rluc luciferase reporter virus, MT-2 cells)
Type: cell-based, human immunodeficiency virus (HIV)
Settings: NL43, 120 h, read-out: Activity
pEC50: −log10 of the molar value. Counter-ions that a name gives are not always drawn.
Result Type: pEC50

Past entries and their recorded results:
- Compound: "Cc1nc2cc(-c3ccccc3)nn2c(-c2ccc3ncccc3c2)c1C(OC(C)(C)C)C(=O)O (stereo not shown) [Example 50]"
  Target: "recombinant NL-Rluc virus (NL4-3 with Renilla Luciferase gene) in MT-2 cells"
  Result Type: "pEC50"
  Recorded Value: "< 6.00"
- Compound: "Cc1nc2cc(-c3ccccc3)nn2c(-c2cccnc2)c1C(OC(C)(C)C)C(=O)O (stereo not shown) [Example 6]"
  Target: "recombinant NL-Rluc virus (NL4-3 with Renilla Luciferase gene) in MT-2 cells"
  Result Type: "pEC50"
  Recorded Value: "< 6.00"
- Compound: "COc1ccc(-c2cccc(-c3cc4nc(C)c([C@H](OC(C)(C)C)C(=O)O)c(-c5cc(F)c6c(c5C)CCCO6)n4n3)c2)cn1 [Example 169]"
  Target: "recombinant NL-Rluc virus (NL4-3 with Renilla Luciferase gene) in MT-2 cells"
  Result Type: "pEC50"
  Recorded Value: "> 7.00"
- Compound: "Cc1cc(F)ccc1-c1cccc(-c2cc3nc(C)c([C@H](OC(C)(C)C)C(=O)O)c(-c4cc(F)c5c(c4C)CCCO5)n3n2)c1 [Example 166]"
  Target: "recombinant NL-Rluc virus (NL4-3 with Renilla Luciferase gene) in MT-2 cells"
  Result Type: "pEC50"
  Recorded Value: "> 7.00"
- Compound: "Cc1ccc(-c2c([C@H](OC(C)(C)C)C(=O)O)c(C)nc3cc(-c4ccc5c(c4)CCCC5)nn23)cc1 [Example 153]"
  Target: "recombinant NL-Rluc virus (NL4-3 with Renilla Luciferase gene) in MT-2 cells"
  Result Type: "pEC50"
  Recorded Value: "6.00 to 7.00"
- Compound: "Cc1nc2c(-c3ccccc3)cnn2c(-c2cc(F)c3c(c2C)CCCO3)c1C(OC(C)(C)C)C(=O)O (stereo not shown) [Example 44, TFA salt]"
  Target: "recombinant NL-Rluc virus (NL4-3 with Renilla Luciferase gene) in MT-2 cells"
  Result Type: "pEC50"
  Recorded Value: "< 6.00"

Query compound follows.
Exercise: Tell me the measured pEC50 of Cc1nc2cc(-c3ccccc3)nn2c(-c2ccc3c(c2)CCO3)c1C(OC(C)(C)C)C(=O)O (stereo not shown) [Example 26] , please.
Solution: 6.00 to 7.00

Measured values drawn from patent US8633200B2 for this set.
